The reported numbers originate from patent US20200392198A1.

Target: T1, human GLP-2 receptor (human, UniProt O95838 1-553)
T1 sequence (looked up): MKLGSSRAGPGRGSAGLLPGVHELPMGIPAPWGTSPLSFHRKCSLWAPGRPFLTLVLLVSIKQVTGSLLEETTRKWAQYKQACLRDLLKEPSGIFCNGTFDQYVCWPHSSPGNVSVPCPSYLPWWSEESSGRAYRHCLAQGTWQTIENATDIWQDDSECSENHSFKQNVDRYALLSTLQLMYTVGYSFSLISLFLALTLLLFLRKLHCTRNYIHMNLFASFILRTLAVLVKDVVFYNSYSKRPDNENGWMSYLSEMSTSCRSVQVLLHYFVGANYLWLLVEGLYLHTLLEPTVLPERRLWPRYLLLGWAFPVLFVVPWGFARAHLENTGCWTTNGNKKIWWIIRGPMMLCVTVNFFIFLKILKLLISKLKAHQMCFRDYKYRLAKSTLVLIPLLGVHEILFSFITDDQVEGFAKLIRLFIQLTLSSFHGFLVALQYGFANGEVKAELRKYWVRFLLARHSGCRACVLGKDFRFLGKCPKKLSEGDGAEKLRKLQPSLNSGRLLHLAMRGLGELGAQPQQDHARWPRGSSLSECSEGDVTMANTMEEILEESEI
Test: cell-based or functional assay
observationType: logEC50 (cAMP)

INSERT INTO assay_data (binder, observationtype, result) VALUES
  ('HAEGTFISDYSTILDNLAARDFVNWLLAQKITD [GIP-GLP-2 co-agonist 9]', 'logEC50 (cAMP)', -6.91);

Lab note: each binder below needs its logEC50 (cAMP) filled in.
1. HAEGTFISDYSTILDNLAARDFINWLIQTKITD [GIP-GLP-2 co-agonist 1]
2. HAEGTFISDYSTILDNLAARDFINWLIQTKITDNDWKHNITQ [GIP-GLP-2 co-agonist 2]

[-7.01, -6.84]
